# experimental.target: GRIP2_6, Q9C0E4
# Sequence (Q9C0E4 648-740): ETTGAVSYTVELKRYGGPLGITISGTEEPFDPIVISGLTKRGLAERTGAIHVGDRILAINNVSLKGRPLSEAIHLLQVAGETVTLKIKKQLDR
# procedure.summary: holdup assay
# Design: key: below the threshold = too weak to quantify, mostly under pKd 3.1 to 4
# study.conditions: plain residues with an end cap or a label only (N-terminal biotin on a linker: ado-ado)
measure: pKd

[[record]]
binder = "SSSVNVSSNL [CXCR1, P25024]"
result = "below the threshold"

[[record]]
binder = "PLPPEEESWV [GAS2L2, Q8NHY3]"
result = "below the threshold"

[[record]]
binder = "IQISELETNV [SLC1A7, O00341]"
result = "below the threshold"

[[record]]
binder = "ELKAEDEVQI [DCHS2, Q6V1P9]"
result = "below the threshold"

[[record]]
binder = "IKLETKKTKL [SLC15A2, Q16348]"
result = 3.48

[[record]]
binder = "SQPLLVHDDV [KIT, P10721]"
result = "below the threshold"

[[record]]
binder = "VCMGDHWFDV [PRKN, O60260]"
result = 3.79

[[record]]
binder = "EKPIDSETKM [SLC1A3, P43003]"
result = "below the threshold"

